B1: Paraneoplastic antigen-like protein 5 (Homo sapiens), Q96PV4 (parent)
chain: MALTLLEDWCKGMDMDPRKALLIVGIPMECSEVEIQDTVKAGLQPLCAYRVLGRMFRREDNAKAVFIELADTVNYTTLPSHIPGKGGSWEVVVKPRNPDDEFLSRLNYFLKDEGRSMTDVARALGCCSLPAESLDAEVMPQVRSPPLEPPKESMWYRKLKVFSGTASPSPGEETFEDWLEQVTEIMPIWQVSEVEKRRRLLESLRGPALSIMRVLQANNDSITVEQCLDALKQIFGDKEDFRASQFRFLQTSPKIGEKVSTFLLRLEPLLQKAVHKSPLSVRSTDMIRLKHLLARVAMTPALRGKLELLDQRGCPPNFLELMKLIRDEEEWENTEAVMKNKEKPSGRGRGASGRQARAEASVSAPQATVQARSFSDSSPQTIQGGLPPLVKRRRLLGSESTRGEDHGQATYPKAENQTPGREGPQAAGEELGNEAGAGAMSHPKPWET
partner: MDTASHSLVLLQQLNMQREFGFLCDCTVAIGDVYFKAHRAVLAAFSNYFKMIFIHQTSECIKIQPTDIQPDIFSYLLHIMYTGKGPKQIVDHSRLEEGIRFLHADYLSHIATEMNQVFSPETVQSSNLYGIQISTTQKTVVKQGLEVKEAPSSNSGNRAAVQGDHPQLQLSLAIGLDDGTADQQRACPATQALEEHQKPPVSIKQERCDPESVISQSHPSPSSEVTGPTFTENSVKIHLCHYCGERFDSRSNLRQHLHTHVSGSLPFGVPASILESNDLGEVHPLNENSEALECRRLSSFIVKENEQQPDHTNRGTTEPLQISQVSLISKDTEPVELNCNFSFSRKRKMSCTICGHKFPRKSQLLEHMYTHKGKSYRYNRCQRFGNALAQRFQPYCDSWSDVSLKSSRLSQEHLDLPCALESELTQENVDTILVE

Variants of: B1
appliedConditions: with zbt25_human ZBTB25, P24278

variantIdentifier: V274M
effect of a mutation on the interaction: with no effect
//
variantIdentifier: R312Q
effect of a mutation on the interaction: with no effect
//
variantIdentifier: T261A
effect of a mutation on the interaction: with no effect
